- Organism: Rattus norvegicus
- PROTOCOL: Open TG-GATES - Regimen: Single
- Format: toxicity, organism-based, Sprague-Dawley
- Parameters: regimen Single, gender Male, age 6 weeks
- TEST_CONDITIONS: in vivo, po, 300 mg/kg, 3 h, tissue Blood, route gavage, dose level Middle
Consider the following compounds and their measured APTT readings.
PARAMETER: APTT (s)

[
  {
    "CHEMICAL_STRUCTURE": "COC(=O)C1=C(C)NC(C)=C(C(=O)OC)C1c1ccccc1[N+](=O)[O-]",
    "PARAMETER": "APTT",
    "OBSERVED": 16.6
  },
  {
    "CHEMICAL_STRUCTURE": "Cc1nnc2n1-c1ccc(Cl)cc1C(c1ccccc1Cl)=NC2",
    "PARAMETER": "APTT",
    "OBSERVED": 16.4
  },
  {
    "CHEMICAL_STRUCTURE": "CN/C(=N/CCSCc1nc[nH]c1C)NC#N",
    "PARAMETER": "APTT",
    "OBSERVED": 17.7
  },
  {
    "CHEMICAL_STRUCTURE": "O=C(OC[C@H]1O[C@@H](OC(=O)c2cc(O)c(O)c(OC(=O)c3cc(O)c(O)c(O)c3)c2)[C@H](OC(=O)c2cc(O)c(O)c(OC(=O)c3cc(O)c(O)c(O)c3)c2)[C@@H](OC(=O)c2cc(O)c(O)c(OC(=O)c3cc(O)c(O)c(O)c3)c2)[C@@H]1OC(=O)c1cc(O)c(O)c(OC(=O)c2cc(O)c(O)c(O)c2)c1)c1cc(O)c(O)c(OC(=O)c2cc(O)c(O)c(O)c2)c1",
    "PARAMETER": "APTT",
    "OBSERVED": 16.5
  },
  {
    "CHEMICAL_STRUCTURE": "CNC(=C[N+](=O)[O-])NCCSCc1ccc(CN(C)C)o1",
    "PARAMETER": "APTT",
    "OBSERVED": 21.3
  }
]

###

- Organism: Rattus norvegicus
- PROTOCOL: Open TG-GATES - Regimen: Daily Repeat
- Type: toxicity, organism-based, Sprague-Dawley
- Set-up: regimen Daily Repeat, gender Male, age 6 weeks
- TEST_CONDITIONS: in vivo, po, 0 mg/kg, […], tissue Blood, route gavage, dose level Control, time 14 day
Consider the following molecules and their measured MCV readings.

[
  {
    "MOLECULE": "CCCc1cc(=O)[nH]c(=S)[nH]1 [PROPYLTHIOURACIL]",
    "MCV": "63 fL"
  },
  {
    "MOLECULE": "CN(C)CCC(c1ccc(Cl)cc1)c1ccccn1 (configuration not stated) [CHLORPHENIRAMINE]",
    "MCV": "62.2 fL"
  },
  {
    "MOLECULE": "CNC(=C[N+](=O)[O-])NCCSCc1ccc(CN(C)C)o1 [RANITIDINE]",
    "MCV": "58.6 fL"
  },
  {
    "MOLECULE": "O=C(OC[C@H]1O[C@@H](OC(=O)c2cc(O)c(O)c(OC(=O)c3cc(O)c(O)c(O)c3)c2)[C@H](OC(=O)c2cc(O)c(O)c(OC(=O)c3cc(O)c(O)c(O)c3)c2)[C@@H](OC(=O)c2cc(O)c(O)c(OC(=O)c3cc(O)c(O)c(O)c3)c2)[C@@H]1OC(=O)c1cc(O)c(O)c(OC(=O)c2cc(O)c(O)c(O)c2)c1)c1cc(O)c(O)c(OC(=O)c2cc(O)c(O)c(O)c2)c1 [TANNIC ACID]",
    "MCV": "62.1 fL"
  },
  {
    "MOLECULE": "Cc1nnc2n1-c1ccc(Cl)cc1C(c1ccccc1Cl)=NC2 [TRIAZOLAM]",
    "MCV": "60.6 fL"
  },
  {
    "MOLECULE": "Nc1c2c(nc3ccccc13)CCCC2 [TACRINE]",
    "MCV": "58.8 fL"
  },
  {
    "MOLECULE": "CC(C)NNC(=O)c1ccncc1 [IPRONIAZID]",
    "MCV": "58.1 fL"
  }
]

###

- Species on record: Rattus norvegicus
- PROTOCOL: Open TG-GATES - Regimen: Daily Repeat
- Format: toxicity, organism-based, Sprague-Dawley
- Parameters: regimen Daily Repeat, gender Male, age 6 weeks
- TEST_CONDITIONS: in vivo, po, 1000 mg/kg, […], tissue Plasma, route gavage, dose level High, time 7 day
Consider the following compounds and their measured K readings.

[
  {
    "CHEMICAL_STRUCTURE": "Cc1nnc2n1-c1ccc(Cl)cc1C(c1ccccc1Cl)=NC2",
    "UNIT_OF_MEASURE": "meq/L",
    "K": 4.7
  },
  {
    "CHEMICAL_STRUCTURE": "CCOc1ccc(NC(C)=O)cc1",
    "UNIT_OF_MEASURE": "meq/L",
    "K": 4.5
  },
  {
    "CHEMICAL_STRUCTURE": "CN/C(=N/CCSCc1nc[nH]c1C)NC#N",
    "UNIT_OF_MEASURE": "meq/L",
    "K": 4
  },
  {
    "CHEMICAL_STRUCTURE": "CNC(=C[N+](=O)[O-])NCCSCc1ccc(CN(C)C)o1",
    "UNIT_OF_MEASURE": "meq/L",
    "K": 3.7
  },
  {
    "CHEMICAL_STRUCTURE": "O=C(OC[C@H]1O[C@@H](OC(=O)c2cc(O)c(O)c(OC(=O)c3cc(O)c(O)c(O)c3)c2)[C@H](OC(=O)c2cc(O)c(O)c(OC(=O)c3cc(O)c(O)c(O)c3)c2)[C@@H](OC(=O)c2cc(O)c(O)c(OC(=O)c3cc(O)c(O)c(O)c3)c2)[C@@H]1OC(=O)c1cc(O)c(O)c(OC(=O)c2cc(O)c(O)c(O)c2)c1)c1cc(O)c(O)c(OC(=O)c2cc(O)c(O)c(O)c2)c1",
    "UNIT_OF_MEASURE": "meq/L",
    "K": 4.6
  },
  {
    "CHEMICAL_STRUCTURE": "COC(=O)C1=C(C)NC(C)=C(C(=O)OC)C1c1ccccc1[N+](=O)[O-]",
    "UNIT_OF_MEASURE": "meq/L",
    "K": 3.9
  }
]

###

- Organism: Rattus norvegicus
- PROTOCOL: Open TG-GATES - Regimen: Single
- Type: toxicity, organism-based, Sprague-Dawley
- Set-up: regimen Single, gender Male, age 6 weeks
- TEST_CONDITIONS: in vivo, po, 0 mg/kg, 3 h, tissue Blood, route gavage, dose level Control
Consider the following compounds and their measured MCH readings.

[
  {
    "COMPOUND": "COC(=O)C1=C(C)NC(C)=C(C(=O)OC)C1c1ccccc1[N+](=O)[O-]",
    "MCH": "20.8 pg"
  },
  {
    "COMPOUND": "Brc1ccccc1",
    "MCH": "21.2 pg"
  },
  {
    "COMPOUND": "CN/C(=N/CCSCc1nc[nH]c1C)NC#N",
    "MCH": "21.3 pg"
  },
  {
    "COMPOUND": "CN1C(=O)CCS(=O)(=O)C1c1ccc(Cl)cc1 (stereo unspecified)",
    "MCH": "21.7 pg"
  },
  {
    "COMPOUND": "CCCc1cc(=O)[nH]c(=S)[nH]1",
    "MCH": "22.3 pg"
  },
  {
    "COMPOUND": "CNC(=C[N+](=O)[O-])NCCSCc1ccc(CN(C)C)o1",
    "MCH": "21.8 pg"
  }
]

###

Consider the following compounds and their measured Hb readings.
- Species on record: Rattus norvegicus
- PROTOCOL: Open TG-GATES - Regimen: Daily Repeat
- Assay type: toxicity, organism-based, Sprague-Dawley
- Design: regimen Daily Repeat, gender Male, age 6 weeks
- TEST_CONDITIONS: in vivo, po, 1000 mg/kg, 72 h, tissue Blood, route gavage, dose level High, time 3 day
PARAMETER: Hb (g/dL)

[
  {
    "COMPOUND": "O=C(OC[C@H]1O[C@@H](OC(=O)c2cc(O)c(O)c(OC(=O)c3cc(O)c(O)c(O)c3)c2)[C@H](OC(=O)c2cc(O)c(O)c(OC(=O)c3cc(O)c(O)c(O)c3)c2)[C@@H](OC(=O)c2cc(O)c(O)c(OC(=O)c3cc(O)c(O)c(O)c3)c2)[C@@H]1OC(=O)c1cc(O)c(O)c(OC(=O)c2cc(O)c(O)c(O)c2)c1)c1cc(O)c(O)c(OC(=O)c2cc(O)c(O)c(O)c2)c1 [TANNIC ACID]",
    "OBSERVED": 13.2
  },
  {
    "COMPOUND": "Cc1nnc2n1-c1ccc(Cl)cc1C(c1ccccc1Cl)=NC2 [TRIAZOLAM]",
    "OBSERVED": 13.8
  },
  {
    "COMPOUND": "CN/C(=N/CCSCc1nc[nH]c1C)NC#N [CIMETIDINE]",
    "OBSERVED": 13.1
  },
  {
    "COMPOUND": "COC(=O)C1=C(C)NC(C)=C(C(=O)OC)C1c1ccccc1[N+](=O)[O-] [NIFEDIPINE]",
    "OBSERVED": 14
  },
  {
    "COMPOUND": "CNC(=C[N+](=O)[O-])NCCSCc1ccc(CN(C)C)o1 [RANITIDINE]",
    "OBSERVED": 13.6
  },
  {
    "COMPOUND": "CCOc1ccc(NC(C)=O)cc1 [PHENACETIN]",
    "OBSERVED": 12.6
  }
]

The reported measurements were obtained from ChEMBL document CHEMBL3885861.
